Recorded values, source PubChem BioAssay AID1259343.

# TEST_NAME: Mycobacterium tuberculosis growth inhibition, primary screen (AID 1259343)
# MEASUREMENT_CONTEXT: at 10 µM
Among all 6,200 compounds or so, about 2,900 (47%) were called active. Cut-off read from the data, not from the text of the source: active = inhibition above about 50%; inactive = the rest. The set was probably picked from earlier hits. The list shows a part of the results.
Log the outcome using a class from active, inactive

Example entries begin here.
- MOLECULE: "C=CCNC(=S)Nc1ccc(SC(F)F)cc1"
  LABEL: "active"
- MOLECULE: "CC(=NNC(=S)NC(C)C)c1ccc2c(c1)OCCO2"
  LABEL: "active"
- MOLECULE: "N#CC(C(=O)C1c2ccccc2-c2ccccc21)c1nc2ccccc2s1 (stereo not drawn)"
  LABEL: "inactive"
- MOLECULE: "C=CCNC(=S)Nc1ccc(Cl)cc1F"
  LABEL: "inactive"
- MOLECULE: "Cc1nc(N)sc1N=Nc1ccc(Br)cc1"
  LABEL: "inactive"
- MOLECULE: "CCOc1ccc(N=Nc2c(C)n[nH]c2C)cc1"
  LABEL: "inactive"
- MOLECULE: "CC(=NNC(N)=S)c1ccc2c(c1)OCCO2"
  LABEL: "active"
- MOLECULE: "C=CCNC(=S)Nc1ccc(Cl)c(Cl)c1"
  LABEL: "inactive"

### Prompt Hi team, can someone confirm the assay call for CC(=NNC(N)=S)C12CC3CC(CC(C3)C1)C2 ?
### Response inactive

### Prompt Recorded call for N#Cc1ccccc1Sc1ccc(C(N)=O)cc1 ?
### Response inactive

### Prompt Short answer needed: outcome of this test for CC(=O)c1ccc(OC(=O)COc2ccc(Oc3ccc(C)cc3)cc2)cc1 ?
### Response active

### Prompt Please state the recorded outcome for this molecule: N#CC(C(=O)COc1cc(F)ccc1F)c1nc2ccccc2s1 (stereo not drawn)
### Response active

### Prompt Dear colleague, could you share the recorded outcome for Cc1n[nH]c(C)c1N=Nc1ccc(Br)cc1 when you have a moment?
### Response active

* * *

# TEST_NAME: Mycobacterium tuberculosis growth inhibition, primary screen (AID 1259343)
# MEASUREMENT_CONTEXT: at 10 µM
Among all 6,200 compounds or so, about 2,900 (47%) were called active. No stated cut-off is given here; in the data, active means inhibition above about 50%; inactive means the rest. So high a share suggests a set chosen from earlier hits. The list shows a part of the results.
Outcome (select one): active, inactive

As a guide, the following entries are already answered.
- COMPOUND: "O=C(CSCc1ccncc1)Nc1ccc(-c2cncnc2)cc1"
  LABEL: "active"
- COMPOUND: "CN(c1ccccc1)S(=O)(=O)c1cccc(NC(=O)C2CC2)c1"
  LABEL: "active"
- COMPOUND: "Cc1ccc(-n2cc(CNCCc3ncc(C)[nH]3)c(-c3ccc(F)cc3)n2)cc1"
  LABEL: "active"

### Prompt GET /call?item= Cc1nn(C)cc1CN(C)C(=O)c1cccc(Cl)c1 returns the recorded outcome of this test.
### Response active

### Prompt What outcome does the record of this test show for CC1NC(=S)N(c2ccc(-c3cn4ccsc4n3)cc2)C1=O (stereo not given) ?
### Response inactive

### Prompt Look up the recorded call for FC(F)(F)c1ccc(-c2cnnc(N3CCC(c4ccncc4)CC3)n2)cc1 in this test.
### Response inactive

* * *

# TEST_NAME: Mycobacterium tuberculosis growth inhibition, primary screen (AID 1259343)
# MEASUREMENT_CONTEXT: at 10 µM
Screen size: about 6,200 compounds; about 2,900 (47%) were called active. No stated cut-off is given here; in the data, active means inhibition above about 50%; inactive means the rest. So high a share suggests a set chosen from earlier hits. The list shows a part of the results.
Select the matching outcome among active, inactive

- COMPOUND: "COc1ccc2c([N+](=O)[O-])c(-n3nnc4ccccc43)[nH]c2c1"
  LABEL: "inactive"
- COMPOUND: "COc1ccc2c(Cl)c(C(=O)n3cnc4ccccc43)sc2c1"
  LABEL: "active"
- COMPOUND: "Cc1cc(-c2ccc(NC3=NCCCS3)cc2)nc2ccccc12"
  LABEL: "inactive"
- COMPOUND: "Cc1ccccc1CNc1cccc([N+](=O)[O-])c1"
  LABEL: "inactive"
- COMPOUND: "CN(Cc1ccccc1)C(=O)c1ccc(Nc2nc(C(N)COCc3ccccc3)cs2)nc1 (stereo unspecified)"
  LABEL: "active"

### Prompt Give the logged outcome of this assay for the following compound: COc1ccc(-c2cc(N)ccc2OC(F)F)cc1
### Response inactive

* * *

# TEST_NAME: Mycobacterium tuberculosis growth inhibition, primary screen (AID 1259343)
# MEASUREMENT_CONTEXT: at 10 µM
The whole screen tested about 6,200 compounds, of which about 2,900 (47%) were called active. No stated cut-off is given here; in the data, active means inhibition above about 50%; inactive means the rest. The set was probably picked from earlier hits. This is one part of the list.
Hi there, use one of these labels in your reply, thanks! active, inactive

### Prompt Call for entry CC1CCCC(C)N1CCNc1ccc2c(-c3ccc(F)cc3)noc2n1 (stereo unspecified) :
### Response inactive

### Prompt What call does the record list for O=C(COc1cccc2cccnc12)NCC1CCCCC1 ?
### Response active

### Prompt What did the test return for COc1ccc(Cl)c(NS(=O)(=O)c2cnc(Cl)n2C)c1 ?
### Response inactive

* * *

# TEST_NAME: Mycobacterium tuberculosis growth inhibition, primary screen (AID 1259343)
# MEASUREMENT_CONTEXT: at 10 µM, hits give high values
The campaign covered roughly 6,200 compounds. About 2,900 (47%) were called active. So high a share suggests a set chosen from earlier hits. The list shows a part of the results.
# inhibition annotations
The answer is to be given in %; state only the numeric part.

- COMPOUND: "O=C(O)c1c[nH]c2c(Cl)c(Cl)ccc2c1=O"
  inhibition, %: 81.6
- COMPOUND: "CCC(=NNc1ccnc2cc(Cl)ccc12)c1ccccc1"
  inhibition, %: 93.9
- COMPOUND: "c1ccc(-c2noc(N3CCCCC3)c2CNCc2ccc3c(c2)OCO3)cc1"
  inhibition, %: 83.5
- COMPOUND: "O=c1[nH]c(O)c(N=Nc2ccc(SC(F)F)cc2)c(=O)[nH]1"
  inhibition, %: 84
- COMPOUND: "CC(Nc1nc(-c2cccs2)nc2cc(Cl)ccc12)c1ccccc1 (centres undefined)"
  inhibition, %: 3.37
- COMPOUND: "O=c1[nH]c(=S)[nH]c(O)c1N=Nc1ccc(SC(F)F)cc1"
  inhibition, %: 99.5
- COMPOUND: "N#Cc1cccc(S(=O)(=O)Nc2cc(C(F)(F)F)ccc2-n2cccn2)c1"
  inhibition, %: 33.2
- COMPOUND: "O=c1[nH]c(=S)[nH]c(O)c1N=Nc1ccc(F)cc1"
  inhibition, %: 104

For this compound ( N#Cc1cccc(S(=O)(=O)Oc2ccc(F)c(F)c2)c1 ), measured inhibition is 100

The compound listed as CN(C)CCCNc1cc(C(C)(C)C)nc2c(-c3ccc(Cl)cc3)cnn12 shows inhibition equal to 36.7

Reported inhibition ( O=C1N=c2ccccc2=C1N=Nc1nc(O)c(-c2c(O)[nH]c3ccccc23)s1 ) = -14

For reference, reported inhibition for O=c1[nH]c(=S)[nH]c(O)c1N=Nc1ccc2c(c1)OCCO2 stands at 38.2

For record N#Cc1cccc(OCCN2CCCc3cc(F)ccc32)c1 the listed inhibition is 36.8

The compound CC(C)(C)c1nnc(NC(=O)c2cc(C(F)(F)F)cc(C(F)(F)F)c2)s1 showed inhibition equal to 96

For this compound ( O=c1[nH]c(=S)[nH]c2sccc12 ), measured inhibition is -6.61

The recorded inhibition for CN(C)CCNc1cc(-c2ccccc2)nc2c(-c3ccccc3)cnn12 is 70.7

* * *

# TEST_NAME: Mycobacterium tuberculosis growth inhibition, primary screen (AID 1259343)
# MEASUREMENT_CONTEXT: at 10 µM, hits give high values
The whole screen tested about 6,200 compounds, of which about 2,900 (47%) were called active. So high a share suggests a set chosen from earlier hits. This is one part of the list.
# maps each entry to its inhibition
Please reply with the bare figure in % and do not write the unit itself.

- MOLECULE: "Cc1ccc(-c2csc3nc(C4CC4)[nH]c(=O)c23)c(C)c1"
  QUANTITY_KIND: "inhibition"
  NUMERIC_READOUT: 6.81
- MOLECULE: "Brc1cccc(N2CCC(CNc3ncccn3)C2)c1 (stereo not drawn)"
  QUANTITY_KIND: "inhibition"
  NUMERIC_READOUT: 90.2
- MOLECULE: "O=S(=O)(NCc1ccc(N2CCCC2)cc1)c1cccc(Br)c1"
  QUANTITY_KIND: "inhibition"
  NUMERIC_READOUT: 28.5
- MOLECULE: "O=c1cc(CSc2nnc(-c3ccc(Cl)s3)o2)occ1O"
  QUANTITY_KIND: "inhibition"
  NUMERIC_READOUT: 80.1
- MOLECULE: "N#Cc1ccc(NC(=O)NCc2ccn(-c3ccccc3)n2)cc1"
  QUANTITY_KIND: "inhibition"
  NUMERIC_READOUT: 32.1

We next turn to a different molecule, shown below.
The reported inhibition of the molecule CS(=O)c1ccccc1C(=O)OCc1c(Cl)cccc1Cl (stereo not drawn) was 30.8
